- Test system: Trypanosoma brucei rhodesiense
- assay notes: Antitrypanosomal activity against Trypanosoma brucei rhodesiense STIB900 by microplate assay
- Assay type: functional, organism-based
- particulars: Trypanosoma brucei, STIB900
recorded endpoint: IC50 (nM)

> print(dat)
                                    compound                     test.system  quantitative.readout
 1  O=C(CN1CCC(O)CC1)OC1CC2(N3CCCC3)CC(c3ccccc3)C1C(c1ccccc1)C2 (racemic)  Trypanosoma brucei rhodesiense                  1050
 2  CCN(CC)CCC(=O)OC1CC2(N3CCCC3)CC(c3ccccc3)C1C(c1ccccc1)C2 (racemic)  Trypanosoma brucei rhodesiense                   110
 3  CN(C)C12CC(OC(=O)CCN3CCCC3)C(C(c3ccccc3)C1)C(c1ccccc1)C2 (racemic)  Trypanosoma brucei rhodesiense                    76
 4  CN(C)C12CC(OC(=O)CN3CCC(O)CC3)C(C(c3ccccc3)C1)C(c1ccccc1)C2 (racemic)  Trypanosoma brucei rhodesiense                  2060
 5  O=C(CCN1CCC(O)CC1)OC1CC2(N3CCCCC3)CC(c3ccccc3)C1C(c1ccccc1)C2 (racemic)  Trypanosoma brucei rhodesiense                   980
 6  CCN(CC)CCC(=O)OC1CC2(N(C)C)CC(c3ccccc3)C1C(c1ccccc1)C2 (racemic)  Trypanosoma brucei rhodesiense                   110
 7  O=C(CCN1CCCCC1)OC1CC2(N3CCCCC3)CC(c3ccccc3)C1C(c1ccccc1)C2 (racemic)  Trypanosoma brucei rhodesiense                   910
 8  CCN(CC)CCC(=O)OC1CC2(N3CCCCC3)CC(c3ccccc3)C1C(c1ccccc1)C2 (racemic)  Trypanosoma brucei rhodesiense                   150
 9  O=C(CCN1CCCC1)OC1CC2(N3CCCC3)CC(c3ccccc3)C1C(c1ccccc1)C2 (racemic)  Trypanosoma brucei rhodesiense                   120
10  CN(C)C12CC(OC(=O)CCN3CCC(O)CC3)C(C(c3ccccc3)C1)C(c1ccccc1)C2 (racemic)  Trypanosoma brucei rhodesiense                   950
11  O=C(CCN1CCC(O)CC1)OC1CC2(N3CCCC3)CC(c3ccccc3)C1C(c1ccccc1)C2 (racemic)  Trypanosoma brucei rhodesiense                  1430
12  O=C(CN1CCC(O)CC1)OC1CC2(N3CCCCC3)CC(c3ccccc3)C1C(c1ccccc1)C2 (racemic)  Trypanosoma brucei rhodesiense                  3810

---

- assay notes: Selectivity index, ratio of IC50 for rat L6 cells to IC50 for Trypanosoma brucei rhodesiense STIB900
- Assay type: toxicity, cell-based
- particulars: read-out: Ratio IC50
recorded endpoint: selectivity ratio

> print(dat)
                                   compound  result
1  CN(C)C12CC(OC(=O)CCN3CCCC3)C(C(c3ccccc3)C1)C(c1ccccc1)C2 (racemic)     341

---

- System: Trypanosoma brucei rhodesiense
- assay notes: Antitrypanosomal activity against Trypanosoma brucei rhodesiense STIB900 by microplate assay
- Type: functional, organism-based
- particulars: Trypanosoma brucei, STIB900
pIC50: −log10 of the molar value.
recorded endpoint: pIC50

> print(dat)
                                   compound                     test.system  quantitative.readout
1  O=C(CCN1CCCCC1)OC1CC2(N3CCCC3)CC(c3ccccc3)C1C(c1ccccc1)C2 (racemic)  Trypanosoma brucei rhodesiense                  6.51
2  Nc1nc(N)nc(Nc2ccc([As]3SCC(CO)S3)cc2)n1 (centres undefined)  Trypanosoma brucei rhodesiense                  8.30
3  CN(C)C12CC(OC(=O)CCN3CCCCC3)C(C(c3ccccc3)C1)C(c1ccccc1)C2 (racemic)  Trypanosoma brucei rhodesiense                  6.68
4  O=C(CCN1CCCC1)OC1CC2(N3CCCCC3)CC(c3ccccc3)C1C(c1ccccc1)C2 (racemic)  Trypanosoma brucei rhodesiense                  6.42
